Molecular target: LNX1_1, Q8TBB1
Sequence (Q8TBB1 261-371): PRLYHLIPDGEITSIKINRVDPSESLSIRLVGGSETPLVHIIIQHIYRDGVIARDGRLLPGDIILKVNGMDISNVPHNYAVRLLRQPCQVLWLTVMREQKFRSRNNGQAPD
Experiment: holdup assay
Set-up: key: below the threshold = too weak to quantify, mostly under pKd 3.1 to 4
Details: plain residues with an end cap or a label only (N-terminal biotin on a linker: ttds)
Assign pKd to each entry below.
Answer with the value's number alone.

Prompt: What does the data say about its pKd? Entry: PKRPFVESNV [TANC2, Q9HCD6]
Response: 3.57

Prompt: What does the data say about its pKd? Entry: LCALPKVTTV [AGMAT, Q9BSE5]
Response: 3.98
